Provenance of the data: the METLIN SMRT retention time set (Domingo-Almenara et al. 2019)

assay: gradient 5% acetonitrile 3 min, to 50% in 2 min, to 85% in 15 min, held 3 min, 100 µL/min; conditions: column: Zorbax Extend-C18 2.1 x 50 mm; eluents: water / acetonitrile, 0.1% formic acid
The entries below are paired with their reported RP-LC retention time.
metric: RP-LC retention time (s)

>>> df
                                   compound                metric  numeric_value
0  COc1ccc(CN2C=C(C(=O)OCc3nc(-c4cccc(C)c4)no3)C(C)=NS2(=O)=O)cc1  RP-LC retention time           1170
1  N#Cc1cccc(C(=O)NC2CCN(c3cc(-c4ccc(Cl)cc4)[nH]n3)C2)c1 (stereo not drawn)  RP-LC retention time            728
2  COc1ccc(S(=O)(=O)Cc2nc(-c3ccccc3Br)no2)cc1  RP-LC retention time            905
